- measurement.target: human NTCP (Homo sapiens, UniProt Q14973)
- Sequence (Q14973 whole entry): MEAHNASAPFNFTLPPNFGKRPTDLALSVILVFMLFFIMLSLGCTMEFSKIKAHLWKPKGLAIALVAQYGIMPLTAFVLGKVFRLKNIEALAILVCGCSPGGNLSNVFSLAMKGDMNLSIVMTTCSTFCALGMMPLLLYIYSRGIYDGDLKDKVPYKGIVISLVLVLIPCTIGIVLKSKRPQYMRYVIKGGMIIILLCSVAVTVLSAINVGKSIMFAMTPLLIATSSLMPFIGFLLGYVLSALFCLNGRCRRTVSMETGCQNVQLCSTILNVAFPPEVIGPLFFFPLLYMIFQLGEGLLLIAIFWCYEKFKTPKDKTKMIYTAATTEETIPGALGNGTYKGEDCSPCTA
- measurement.protocol: Screening fluorescent competitive Myrcludex B-FITC binding assay (96-well, 10 µM drug)
- measurement.setup: Prestwick library screen, 10 µM drug; B-score of Myrcludex B-FITC binding
Where a name gives a salt, the structure may show the parent alone.
As shown below, each of these molecules has a reported B-score binding assay value.
parameter: B-score binding assay

molecule="CC[C@@H]1C(=O)OC[C@@H]1Cc1cncn1C [Pilocarpine nitrate]" endpoint_result=0.358
molecule="CCOc1ccc(Cc2nccc3cc(OCC)c(OCC)cc23)cc1OCC [Ethaverine hydrochloride]" endpoint_result=1.651
molecule="CN1CCCCC1CCN1c2ccccc2Sc2ccc([S+](C)[O-])cc21 (stereo not drawn) [Mesoridazine besylate]" endpoint_result=0.002
molecule=CC(=O)OCC1=C(C(=O)O)N2C(=O)[C@@H](N)[C@H]2SC1 endpoint_result=0.15
molecule=COc1ccc(C(Cl)=C(c2ccc(OC)cc2)c2ccc(OC)cc2)cc1 endpoint_result=1.19
molecule="Cl.N[C@@H]1CCCCN(c2c(F)cc3c(=O)c(C(=O)O)cn(C4CC4)c3c2Cl)C1 [Besifloxacin hydrochloride]" endpoint_result=1.112
molecule="CN1CCOC(c2ccccc2)c2ccccc2C1 (stereo not drawn) [Nefopam hydrochloride]" endpoint_result=0.293
molecule=O=C1NCCN1CCN1CCC(c2cn(-c3ccc(F)cc3)c3ccc(Cl)cc23)CC1 endpoint_result=0.84
molecule="CCN1CCCC1CNC(=O)c1cc(S(=O)(=O)CC)c(N)cc1OC (stereo not drawn) [Amisulpride]" endpoint_result=0.863

----------
- measurement.target: human NTCP (Homo sapiens, UniProt Q14973)
- measurement.protocol: Screening taurocholate uptake assay (96-well, [14C]taurocholate, 10 µM drug)
- measurement.setup: combined ranking of functional and binding screening assays
Counter-ions that a name gives are not always drawn.
As shown below, each of these compounds has a reported Ranking score value.
parameter: Ranking score

compound="CCOC(=O)Nc1ccc2c(c1)N(C(=O)CCN1CCOCC1)c1ccccc1S2 [Moricizine hydrochloride]" measurement_target="human NTCP (Homo sapiens, UniProt Q14973)" endpoint_result=1215.96
compound="CC(C)NCC(O)COc1ccc(CCOCC2CC2)cc1 (stereo not drawn) [Betaxolol hydrochloride]" measurement_target="human NTCP (Homo sapiens, UniProt Q14973)" endpoint_result=583.493
compound="CC[N+](CC)(CC(=O)Nc1c(C)cccc1C)Cc1ccccc1 [Denatonium benzoate]" measurement_target="human NTCP (Homo sapiens, UniProt Q14973)" endpoint_result=531.85

----------
As shown below, each of these compounds has a reported B-score binding assay value.
- measurement.target: human NTCP (Homo sapiens, UniProt Q14973)
- measurement.protocol: Screening fluorescent competitive Myrcludex B-FITC binding assay (96-well, 10 µM drug)
- measurement.setup: Prestwick library screen, 10 µM drug; B-score of Myrcludex B-FITC binding
Structures can show the parent of a compound that is named as a salt.
parameter: B-score binding assay

compound="CN1CCc2c(c3ccccc3n2Cc2ccccc2)C1.O=S(=O)(O)c1cccc2c(S(=O)(=O)O)cccc12 [Mebhydroline 1,5-naphtalenedisulfonate]" measurement_target="human NTCP (Homo sapiens, UniProt Q14973)" parameter="B-score binding assay" endpoint_result=1.889
compound="Cc1cn([C@H]2C=C[C@@H](CO)O2)c(=O)[nH]c1=O [Stavudine]" measurement_target="human NTCP (Homo sapiens, UniProt Q14973)" parameter="B-score binding assay" endpoint_result=0.431
compound="NC(=O)c1cccnc1 [Nicotinamide]" measurement_target="human NTCP (Homo sapiens, UniProt Q14973)" parameter="B-score binding assay" endpoint_result=0.079
compound="CC(Cc1cccc(C(F)(F)F)c1)NCCOC(=O)c1ccccc1 (stereo not shown) [Benfluorex]" measurement_target="human NTCP (Homo sapiens, UniProt Q14973)" parameter="B-score binding assay" endpoint_result=1.025
compound="CC(C)C[C@H](CN)CC(=O)O [Pregabalin]" measurement_target="human NTCP (Homo sapiens, UniProt Q14973)" parameter="B-score binding assay" endpoint_result=0.027
compound="Cc1cc2c(cc1S(N)(=O)=O)S(=O)(=O)CCC2 [Meticrane]" measurement_target="human NTCP (Homo sapiens, UniProt Q14973)" parameter="B-score binding assay" endpoint_result=-0.016
compound="O=c1[nH]cnc2c1ncn2[C@H]1CC[C@@H](CO)O1 [Didanosine]" measurement_target="human NTCP (Homo sapiens, UniProt Q14973)" parameter="B-score binding assay" endpoint_result=1.663
compound="Nc1nc(=O)n([C@@H]2CS[C@H](CO)O2)cc1F [(-)-Emtricitabine]" measurement_target="human NTCP (Homo sapiens, UniProt Q14973)" parameter="B-score binding assay" endpoint_result=0.464
compound="CCN(CC)C(=O)Nc1ccc(OCC(O)CNC(C)(C)C)c(C(C)=O)c1 (stereo not shown) [Celiprolol HCl]" measurement_target="human NTCP (Homo sapiens, UniProt Q14973)" parameter="B-score binding assay" endpoint_result=1.474
compound="Cn1c(=O)c2c(ncn2CC(=O)O)n(C)c1=O [Acefylline]" measurement_target="human NTCP (Homo sapiens, UniProt Q14973)" parameter="B-score binding assay" endpoint_result=0.607
compound="Cc1cc(C2CCCCC2)n(O)c(=O)c1.NCCO [Ciclopirox ethanolamine]" measurement_target="human NTCP (Homo sapiens, UniProt Q14973)" parameter="B-score binding assay" endpoint_result=1.631
compound="O=C(N/N=C/c1ccc([N+](=O)[O-])o1)c1ccc(O)cc1 [Nifuroxazide]" measurement_target="human NTCP (Homo sapiens, UniProt Q14973)" parameter="B-score binding assay" endpoint_result=0.661
compound="COc1ccc(CC2c3cc(OC)c(OC)cc3CC[N+]2(C)CCC(=O)OCCCCCOC(=O)CC[N+]2(C)CCc3cc(OC)c(OC)cc3C2Cc2ccc(OC)c(OC)c2)cc1OC (stereo not shown) [Atracurium besylate]" measurement_target="human NTCP (Homo sapiens, UniProt Q14973)" parameter="B-score binding assay" endpoint_result=0.189
compound="CN1C(=O)OC(C)(C)C1=O [Trimethadione]" measurement_target="human NTCP (Homo sapiens, UniProt Q14973)" parameter="B-score binding assay" endpoint_result=0.001
compound="COc1cc(C(=O)N2CCOCC2)cc(OC)c1OC [Trimetozine]" measurement_target="human NTCP (Homo sapiens, UniProt Q14973)" parameter="B-score binding assay" endpoint_result=0.441
compound="CC(C)(C)NCC(O)COc1cccc2c1CC(O)C(O)C2 (stereo not shown) [Nadolol]" measurement_target="human NTCP (Homo sapiens, UniProt Q14973)" parameter="B-score binding assay" endpoint_result=1.627
compound="CN1[C@@H]2CC[C@H]1C[C@@H](OC1c3ccccc3CCc3ccccc31)C2.O=C(O)CC(O)(CC(=O)O)C(=O)O [Deptropine citrate]" measurement_target="human NTCP (Homo sapiens, UniProt Q14973)" parameter="B-score binding assay" endpoint_result=0.633
compound="Cn1cc[nH]c1=S [Methimazole]" measurement_target="human NTCP (Homo sapiens, UniProt Q14973)" parameter="B-score binding assay" endpoint_result=1.226
compound="CN(C)CCOC1=Cc2ccccc2Sc2ccc(Cl)cc21 [Zotepine]" measurement_target="human NTCP (Homo sapiens, UniProt Q14973)" parameter="B-score binding assay" endpoint_result=1.26
compound="CCOC(=O)[C@H](CCc1ccccc1)N[C@@H](C)C(=O)N1[C@H](C(=O)O)C[C@@H]2CCC[C@@H]21 [Ramipril]" measurement_target="human NTCP (Homo sapiens, UniProt Q14973)" parameter="B-score binding assay" endpoint_result=1.901
compound="Cl.Clc1ccc(C(OCCN2CCCCC2)c2ccccc2)cc1 (stereo not shown) [Cloperastine hydrochloride]" measurement_target="human NTCP (Homo sapiens, UniProt Q14973)" parameter="B-score binding assay" endpoint_result=0.356
compound="CN1CCCC(n2nc(Cc3ccc(Cl)cc3)c3ccccc3c2=O)CC1 (stereo not shown) [Azelastine HCl]" measurement_target="human NTCP (Homo sapiens, UniProt Q14973)" parameter="B-score binding assay" endpoint_result=0.157
